Assign pKd to each entry below.
biological target: T1, human serum albumin (human, UniProt P02768 25-609); experiment: SPR, Fab captured; albumin taken as HSA;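 note: antibody held on a capture surface, albumin injected for 3 min association then dissociation followed, signals corrected using a blank reference flow cell and buffer-only injections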
T1 construct: mature; Bought purified serum albumin; also called HSA; Human albumin
pKd here is simply -log10 of the concentration when that concentration is written in mol/L.

Query string: Given CA645 gL4gH41 Fab (Fab, V domains shown, Fab: human gamma1 CH1, human kappa (Km3); Kabat numbering) VH: EVQLLESGGGLVQPGGSLRLSCAVSGIDLSNYAINWVRQAPGKGLEWIGIIWASGTTFYATWAKGRFTISRDNSKNTVYLQMNSLRAEDTAVYYCARTVPDYSTAPYFDLWGQGTLVTVSS VL: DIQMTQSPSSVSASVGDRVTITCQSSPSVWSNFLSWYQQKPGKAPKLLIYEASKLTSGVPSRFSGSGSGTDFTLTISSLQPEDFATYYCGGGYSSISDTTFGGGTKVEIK , state its recorded pKd.
Result string: 8.18

Query string: Requested read-out: pKd. Entry: CA645 gL4gH45 Fab (Fab, V domains shown, Fab: human gamma1 CH1, human kappa (Km3); Kabat numbering) VH: EVQLLESGGGLVQPGGSLRLSCAVSGIDLSNYAINWVRQAPGKGLEWIGIIWASGTTFYATWAKGRFTISRDNSKNTVYLQMNSLRAEDTAVYYCARTVPVYSTAPYFDLWGQGTLVTVSS VL: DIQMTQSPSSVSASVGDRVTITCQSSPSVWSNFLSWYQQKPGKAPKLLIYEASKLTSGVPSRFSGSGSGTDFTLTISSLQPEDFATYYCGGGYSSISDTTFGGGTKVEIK
Result string: 8.08

Hey, just so you know, these numbers are from patent US20190144529A1.
